Tested on: NCI/ADR-RES ovarian
Assay: NCI tumour cell line growth inhibition, 48 h
The reader will find reported TGI values listed item by item below.

Before answering, review these 5 worked examples.
[[record]]
molecule = "CCOC(=O)c1ccc(-n2cnc(-c3ccc([N+](=O)[O-])cc3)c2)cc1"
measured_value = "> 100 µM"

[[record]]
molecule = "Cc1c(CN2CCN(C(=O)[C@H](C)O)CC2)sc2c(N3CCOCC3)nc(-c3cnc(N)nc3)nc12"
measured_value = "> 30.2 µM"

[[record]]
molecule = "Cc1ncn(-c2ccccc2O)c1C"
measured_value = "> 100 µM"

[[record]]
molecule = "COc1cc2nc(Nc3cccc(Cl)c3)nc(N)c2cc1OC"
measured_value = "33.9 µM"

[[record]]
molecule = "COc1cc2nc(N3CCCN(C)CC3)nc(NC3CCN(Cc4ccccc4)CC3)c2cc1OC"
measured_value = "34.8 µM"


Tested on NCI/ADR-RES ovarian: Cc1cn(C2CC(n3cc(Cn4ccc(=O)[nH]c4=O)nn3)C(CO)O2)c(=O)[nH]c1=O (centres undefined) . Observed TGI: > 100 µM

Tested on NCI/ADR-RES ovarian: CCOC(=O)C(NC(=O)c1cccc(Cl)c1)(Nc1ccc(S(=O)(=O)Nc2cc(C)on2)cc1)C(F)(F)F (centres undefined) . Observed TGI: > 100 µM

Tested on NCI/ADR-RES ovarian: FC1(F)ON2CCc3ccccc3C2[C@H]1c1ccccc1 (some centres undefined) . Observed TGI: > 100 µM

Tested on NCI/ADR-RES ovarian: `COc1ccc(/C=N\N(C)Cc2cccc3ccsc23)cc1` . Observed TGI: > 100 µM
